- measurementDescription: RAM signaling pathway blockade in yeast – S. cerevisiae, Pdr1DBD-CYC8 efflux-inhibited sensitized strain, primary screen (AID 1298);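 further: 0% = DMSO untreated cells without growth and 100% = 10 µM 1-NA-PP1 full growth; higher means more yeast growth rescued from 5-FOA killing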
- particulars: S. cerevisiae cbk1-as DSE1-URA3 strain, 5-FOA growth OD615, 2 d; at 50 µM; hits give high values
Provide the reported RAM network inhibition of each item.
Note: unit % is implicit; provide only the numeric part.

QUERY: Reported RAM network inhibition for CC(=O)CC(=O)Nc1cccc2c1CCCC2 : what is it?
RESULT: 1.72

QUERY: Reported RAM network inhibition for Cc1c(C(=O)NCc2ccc3c(c2)OCO3)oc2ccc(S(=O)(=O)N3CCC(C)CC3)cc12 : what is it?
RESULT: 11.2

QUERY: Reported RAM network inhibition for Cn1c(=O)c2c(nc(NCc3ccccc3)n2Cc2ccc(F)cc2)n(C)c1=O : what is it?
RESULT: 3.33

QUERY: Reported RAM network inhibition for COC(=O)C1C(O)=C(C(C)=N)C(=O)CC1(C)C (configuration not stated) : what is it?
RESULT: 1.67

QUERY: Reported RAM network inhibition for CC(c1ccccc1F)n1cc(C(=O)NCc2ccncc2)nn1 (configuration not stated) : what is it?
RESULT: 4.53

QUERY: Reported RAM network inhibition for CCOc1ccc(OCC)c(Nc2cc(C)nc3ncnn23)c1 : what is it?
RESULT: -0.06

QUERY: Reported RAM network inhibition for Cc1ccccc1C(=O)NCCN=C1NS(=O)(=O)c2ccccc21 : what is it?
RESULT: 1.88

QUERY: Reported RAM network inhibition for Cc1cc(C)n(Cc2ccccc2F)c(=O)c1C#N : what is it?
RESULT: 4.95

QUERY: Reported RAM network inhibition for CCOC(=O)c1sc(NCCNc2nc(C)c(C(=O)OCC)s2)nc1C : what is it?
RESULT: 5.86

QUERY: Reported RAM network inhibition for O=C(CN1C2=NCCCN2c2ccccc21)c1cccs1 : what is it?
RESULT: 4.72

QUERY: Reported RAM network inhibition for COC(=O)C1=CN(C)C=C(C(=O)OC)C1c1ccsc1 : what is it?
RESULT: 0.41

QUERY: Reported RAM network inhibition for CCOc1ccccc1Nc1cc(C)nc2nc(C)nn12 : what is it?
RESULT: -1.47

----------
Provide the reported viability of each item.
- measurementDescription: growth suppression of beta-catenin knockout HCT116, pilot screen, human colon tumor cells (AID 823);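 further: 0% = wells killed by 20 µM Hyamine and 100% = untreated DMSO cell wells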
- particulars: CellTiter-Glo, 60 h, at 10 µM, hits give low values
Inconclusive results are not listed.
Note: unit % is implicit; provide only the numeric part.

QUERY: Reported viability for Cc1cc(Nc2ccc(F)cc2C)n2nc(C)nc2n1 : what is it?
RESULT: 101

QUERY: Reported viability for CCOC(=O)c1c(C)[nH]c(C(=O)CSc2nnnn2-c2ccccc2)c1C : what is it?
RESULT: 100

QUERY: Reported viability for Cc1c(C(=O)NCC2CCCO2)sc2nc(-c3ccc(F)cc3)cn12 (stereo unspecified) : what is it?
RESULT: 95.2

QUERY: Reported viability for CCOc1ccc(Br)cc1/C=N/O : what is it?
RESULT: 80.3

QUERY: Reported viability for COc1ccc(-c2cn3c(C)c(C(=O)N4CCCc5ccccc54)sc3n2)cc1 : what is it?
RESULT: 64.9

QUERY: Reported viability for COC(=O)c1cc(NC(=O)c2nccnc2C(=O)O)cc(C(=O)OC)c1 : what is it?
RESULT: 90.4

QUERY: Reported viability for O=C(CCn1c(=O)oc2ccccc21)NCc1ccc2c(c1)OCO2 : what is it?
RESULT: 100

QUERY: Reported viability for O=C1CN(C(=O)c2ccc(Br)o2)C(c2ccccc2)c2cc(F)ccc2N1 (stereo unspecified) : what is it?
RESULT: 84.9

QUERY: Reported viability for COc1ccc(OC)c(C(C)NC(=O)c2ccco2)c1 (stereo unspecified) : what is it?
RESULT: 40.8

QUERY: Reported viability for O=C(Nc1nc2c(s1)CCCC2)c1ccc(Br)o1 : what is it?
RESULT: 62.4

QUERY: Reported viability for Cn1c(=O)c2c(nc(CN3CCN(C(=O)c4ccco4)CC3)n2Cc2ccccc2F)n(C)c1=O : what is it?
RESULT: 101
